Test: Binding affinity to G-rich NRAS RNA (unknown origin) assessed as binding constant by SPR analysis
OBSERVABLE: pKd
Reminder that pKd is minus the log10 of a molar concentration.

Task: Which pKd is listed for CCn1c2ccccc2c2cc(-c3nc(-c4ccc(N5CCN(C)CC5)cc4)c(-c4ccc(N5CCN(Cc6cn([C@@H]7O[C@H](CO)[C@@H](O)[C@H](O)[C@H]7O)nn6)CC5)cc4)[nH]3)ccc21 (single isomer, unassigned) ?
Result: 4.93

###

This section presents compounds with their documented pKd values.
Assay: Binding affinity to G-rich HRAS DNA (unknown origin) assessed as binding constant by SPR analysis
Keep it numeric: pKd is minus log10 of the concentration in mol/L.

COMPOUND: CCn1c2ccccc2c2cc(-c3nc(-c4ccc(N5CCN(C)CC5)cc4)c(-c4ccc(N5CCN(Cc6cn(CCOCCO)nn6)CC5)cc4)[nH]3)ccc21
OBSERVABLE: pKd
OBSERVED: 5.55

Please look at the following compound next.
Task: Name the recorded pKd for CCn1c2ccccc2c2cc(-c3nc(-c4ccc(N5CCN(C)CC5)cc4)c(-c4ccc(N5CCN(Cc6cn(CCOCCO[C@@H]7O[C@H](CO)[C@@H](O)[C@H](O)[C@H]7O)nn6)CC5)cc4)[nH]3)ccc21 (single isomer, unassigned) .
Result: 5.60

###

System: Quadruplex DNA
Assay: Stabilization of c-MYC G4 quadruplex DNA Pu22 (unknown origin) assessed as change in melting temperature at 2 uM by CD spectroscopy
Format: nucleic-acid assay
Below, each entry is listed alongside its reported ΔTm.
Provide only the numeric value, understood in °C.

Worked set:
COMPOUND: CCn1c2ccccc2c2cc(-c3nc(-c4ccc(N5CCN(C)CC5)cc4)c(-c4ccc(N5CCN(C)CC5)cc4)n3-c3ccc(OC)cc3)ccc21
UNIT ABBREVIATION: °C
OBSERVED: 12.5

COMPOUND: COc1ccc(-n2c(-c3ccc4c(c3)c3ccccc3n4Cc3cn(CCOCCO[C@@H]4O[C@H](COC(C)=O)[C@@H](OC(C)=O)[C@H](OC(C)=O)[C@H]4OC(C)=O)nn3)nc(-c3ccc(N4CCN(C)CC4)cc3)c2-c2ccc(N3CCN(C)CC3)cc2)cc1
UNIT ABBREVIATION: °C
OBSERVED: 15.9

COMPOUND: CCn1c2ccccc2c2cc(-c3nc(-c4ccc(N5CCN(C)CC5)cc4)c(-c4ccc(N5CCN(Cc6cn(CCOCCO[C@@H]7O[C@H](CO)[C@@H](O)[C@H](O)[C@H]7O)nn6)CC5)cc4)[nH]3)ccc21 (single isomer, unassigned)
UNIT ABBREVIATION: °C
OBSERVED: 19.2

COMPOUND: CCn1c2ccccc2c2cc(-c3nc(-c4ccc(N5CCN(C)CC5)cc4)c(-c4ccc(N5CCN(Cc6cn(CCOCCO)nn6)CC5)cc4)[nH]3)ccc21
UNIT ABBREVIATION: °C
OBSERVED: 18.7

Alright, here's another compound for you.
Task: # ΔTm lookup, item "CCn1c2ccccc2c2cc(-c3nc(-c4ccc(N5CCN(C)CC5)cc4)c(-c4ccc(N5CCN(C)CC5)cc4)n3CCOCCO)ccc21"
Result: 11.6

###

Experiment: Binding affinity to G-rich HRAS DNA (unknown origin) assessed as binding constant by SPR analysis
OBSERVABLE: Kd (µM)
Express your answer in µM, writing the number without its unit.

Here are 3 molecules together with their reported answers.
MOLECULE: CCn1c2ccccc2c2cc(-c3nc(-c4ccc(N5CCN(C)CC5)cc4)c(-c4ccc(N5CCN(C)CC5)cc4)n3-c3ccc(OCCCO[C@@H]4O[C@H](CO)[C@@H](O)[C@H](O)[C@H]4O)cc3)ccc21 (single isomer, unassigned)
OBSERVED: 14.3

MOLECULE: CCn1c2ccccc2c2cc(-c3nc(-c4ccc(N5CCN(C)CC5)cc4)c(-c4ccc(N5CCN(Cc6cn([C@@H]7O[C@H](CO)[C@H](O)[C@H](O)[C@H]7O)nn6)CC5)cc4)[nH]3)ccc21 (single isomer, unassigned)
OBSERVED: 2.7

MOLECULE: CCn1c2ccccc2c2cc(-c3nc(-c4ccc(N5CCN(C)CC5)cc4)c(-c4ccc(N5CCN(C)CC5)cc4)n3-c3ccc(O[C@@H]4O[C@H](CO)[C@@H](O)[C@H](O)[C@H]4O)cc3)ccc21
OBSERVED: 6.8

Task: I am curious: what Kd value has been reported for "CCn1c2ccccc2c2cc(-c3nc(-c4ccc(N5CCN(C)CC5)cc4)c(-c4ccc(N5CCN(C)CC5)cc4)n3-c3ccc(OCCOCCO)cc3)ccc21" ?
Result: 5.9

Task: Kd for CCn1c2ccccc2c2cc(-c3nc(-c4ccc(N5CCN(C)CC5)cc4)c(-c4ccc(N5CCN(Cc6cn([C@@H]7O[C@H](CO)[C@@H](O)[C@H](O)[C@H]7O)nn6)CC5)cc4)[nH]3)ccc21 (single isomer, unassigned) ?
Result: 3.3

Task: So what's the measured Kd for this one? CCn1c2ccccc2c2cc(-c3nc(-c4ccc(N5CCN(C)CC5)cc4)c(-c4ccc(N5CCN(C)CC5)cc4)n3CCOCCO[C@@H]3O[C@H](CO)[C@@H](O)[C@H](O)[C@H]3O)ccc21 (single isomer, unassigned)
Result: 13.7

Task: Given the molecule "CCn1c2ccccc2c2cc(-c3nc(-c4ccc(N5CCN(C)CC5)cc4)c(-c4ccc(N5CCN(C)CC5)cc4)n3-c3ccc(OC)cc3)ccc21" , what is its reported Kd?
Result: 15.1

Task: Recorded Kd of CCn1c2ccccc2c2cc(-c3nc(-c4ccc(N5CCN(C)CC5)cc4)c(-c4ccc(N5CCN(C)CC5)cc4)n3-c3ccc(OCCOCCO[C@@H]4O[C@H](CO)[C@@H](O)[C@H](O)[C@H]4N)cc3)ccc21 (single isomer, unassigned) , please.
Result: 2.3

###

Experiment: Cytotoxicity against human HBL-100 cells assessed as reduction in cell viability measured after 48 hrs by MTT assay
Format: toxicity, cell-based
OBSERVABLE: IC50 at 48 h (µM)
Respond numerically; units are µM and should not be typed.

# example entries with known answers
MOLECULE: COc1ccc(-n2c(-c3ccc4c(c3)c3ccccc3n4Cc3cn(CCOCCO[C@@H]4O[C@H](COC(C)=O)[C@@H](OC(C)=O)[C@H](OC(C)=O)[C@H]4OC(C)=O)nn3)nc(-c3ccc(N4CCN(C)CC4)cc3)c2-c2ccc(N3CCN(C)CC3)cc2)cc1
UNIT ABBREVIATION: µM
IC50 at 48 h: 19.3

MOLECULE: CCn1c2ccccc2c2cc(-c3nc(-c4ccc(N5CCN(C)CC5)cc4)c(-c4ccc(N5CCN(C)CC5)cc4)n3-c3ccc(OCCCOC4(C)O[C@H]5O[C@H](COC(C)=O)[C@@H](OC(C)=O)[C@H](OC(C)=O)[C@H]5O4)cc3)ccc21 (single isomer, unassigned)
UNIT ABBREVIATION: µM
IC50 at 48 h: 4.4

// next entry
Task: What does the record list as IC50 at 48 h for CCn1c2ccccc2c2cc(-c3nc(-c4ccc(N5CCN(C)CC5)cc4)c(-c4ccc(N5CCN(C)CC5)cc4)n3-c3ccc(OCCOCCOC4(C)O[C@H]5O[C@H](COC(C)=O)[C@@H](OC(C)=O)[C@H](OC(C)=O)[C@H]5O4)cc3)ccc21 (single isomer, unassigned) ?
Result: 77.8

Ref: ChEMBL document CHEMBL5104180
